- System Under Test: Nav 1.7 (Homo sapiens (Human))
- Sequence (Q15858 whole entry): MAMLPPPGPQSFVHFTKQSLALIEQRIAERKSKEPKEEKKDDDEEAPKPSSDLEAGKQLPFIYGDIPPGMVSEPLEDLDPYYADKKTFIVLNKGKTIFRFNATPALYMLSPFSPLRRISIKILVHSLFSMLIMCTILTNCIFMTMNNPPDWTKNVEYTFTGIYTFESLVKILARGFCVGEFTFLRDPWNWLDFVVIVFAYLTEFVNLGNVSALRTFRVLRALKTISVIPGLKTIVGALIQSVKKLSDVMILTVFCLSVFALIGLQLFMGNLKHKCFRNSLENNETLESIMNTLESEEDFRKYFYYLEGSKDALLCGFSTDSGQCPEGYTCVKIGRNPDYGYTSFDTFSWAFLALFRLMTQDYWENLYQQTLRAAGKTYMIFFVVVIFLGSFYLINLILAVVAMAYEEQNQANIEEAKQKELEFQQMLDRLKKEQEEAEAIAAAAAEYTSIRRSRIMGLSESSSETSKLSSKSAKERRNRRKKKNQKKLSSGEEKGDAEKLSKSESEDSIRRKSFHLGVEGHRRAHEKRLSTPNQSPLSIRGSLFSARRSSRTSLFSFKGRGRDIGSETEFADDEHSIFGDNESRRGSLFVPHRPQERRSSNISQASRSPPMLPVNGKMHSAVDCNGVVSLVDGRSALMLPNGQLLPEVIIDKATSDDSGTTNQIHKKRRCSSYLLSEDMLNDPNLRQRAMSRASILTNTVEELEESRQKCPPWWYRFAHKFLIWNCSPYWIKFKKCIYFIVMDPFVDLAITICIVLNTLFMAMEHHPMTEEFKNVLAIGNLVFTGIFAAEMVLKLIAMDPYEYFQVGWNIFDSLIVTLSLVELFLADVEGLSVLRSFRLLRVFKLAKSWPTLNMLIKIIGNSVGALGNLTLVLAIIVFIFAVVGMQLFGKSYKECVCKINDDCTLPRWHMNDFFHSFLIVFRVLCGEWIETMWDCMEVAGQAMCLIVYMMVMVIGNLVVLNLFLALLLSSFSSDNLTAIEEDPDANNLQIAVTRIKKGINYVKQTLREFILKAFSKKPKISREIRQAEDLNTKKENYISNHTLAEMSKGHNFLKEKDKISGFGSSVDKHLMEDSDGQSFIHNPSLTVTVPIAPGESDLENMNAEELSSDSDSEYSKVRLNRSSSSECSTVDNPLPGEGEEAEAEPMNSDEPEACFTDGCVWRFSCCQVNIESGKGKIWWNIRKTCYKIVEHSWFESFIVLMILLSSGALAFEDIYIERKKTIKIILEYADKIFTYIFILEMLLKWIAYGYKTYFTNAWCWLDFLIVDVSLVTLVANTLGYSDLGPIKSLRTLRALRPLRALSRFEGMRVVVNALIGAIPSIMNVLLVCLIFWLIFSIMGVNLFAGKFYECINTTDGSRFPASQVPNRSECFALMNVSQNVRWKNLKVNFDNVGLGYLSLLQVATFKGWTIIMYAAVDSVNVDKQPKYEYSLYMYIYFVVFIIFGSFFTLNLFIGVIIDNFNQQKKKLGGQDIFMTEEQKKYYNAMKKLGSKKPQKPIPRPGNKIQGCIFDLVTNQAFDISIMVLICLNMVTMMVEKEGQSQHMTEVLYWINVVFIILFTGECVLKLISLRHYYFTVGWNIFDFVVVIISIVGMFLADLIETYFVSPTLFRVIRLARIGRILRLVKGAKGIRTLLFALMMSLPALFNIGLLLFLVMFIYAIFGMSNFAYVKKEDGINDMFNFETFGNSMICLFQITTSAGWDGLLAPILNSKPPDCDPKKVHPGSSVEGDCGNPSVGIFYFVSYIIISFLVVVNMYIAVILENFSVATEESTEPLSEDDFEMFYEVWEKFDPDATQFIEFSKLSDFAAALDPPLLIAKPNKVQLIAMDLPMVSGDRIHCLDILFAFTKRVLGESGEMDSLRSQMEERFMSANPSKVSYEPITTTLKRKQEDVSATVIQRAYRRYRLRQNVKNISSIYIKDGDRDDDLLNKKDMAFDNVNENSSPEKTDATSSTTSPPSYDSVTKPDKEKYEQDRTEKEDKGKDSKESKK
- Experiment: Nav 1.7 in vitro PX assay (PatchXpress whole cell voltage clamp)
- Format: cell-based
- Reported Conditions: 293 cells, human Nav1.7, partially inactivated state; read-out: Nav1.7 PX IC50 IP
pIC50: −log10 of the molar value.
The following compounds are shown together with reported pIC50 values.
Readout Type: pIC50

compound=COc1cc(-c2cc(F)cc(F)c2)ccc1-c1nccc2cc(S(=O)(=O)Nc3nnco3)ccc12 readout_type=pIC50 endpoint_value=4.78
compound=COc1cc2cc(S(=O)(=O)Nc3nccs3)ccc2c(-c2ccc(C(F)(F)F)cc2OC)n1 readout_type=pIC50 endpoint_value=5.82
compound=COc1cccc(OC)c1-c1nccc2cc(S(=O)(=O)Nc3ccncn3)ccc12 readout_type=pIC50 endpoint_value=4.64
compound=COc1cc(-c2cccc(C(F)(F)F)c2)ccc1-c1ncnc2cc(S(=O)(=O)Nc3ccncn3)ccc12 readout_type=pIC50 endpoint_value=7.24
compound=Cc1cnc(OC2CCNCC2)c(-c2nccc3cc(S(=O)(=O)Nc4nccs4)ccc23)c1 readout_type=pIC50 endpoint_value=5.62
compound=COc1cc(C(F)(F)F)ccc1-c1nccc2cc(S(=O)(=O)Nc3ncncc3F)ccc12 readout_type=pIC50 endpoint_value=5.23
compound=CN(Cc1ccccc1)c1cccc2cc(S(=O)(=O)Nc3ncns3)ccc12 readout_type=pIC50 endpoint_value=5.84
compound=N#Cc1ccccc1-c1ncc(F)c2cc(S(=O)(=O)Nc3nccs3)ccc12 readout_type=pIC50 endpoint_value=5.45
compound=COc1cc(-c2cccc(F)c2)ccc1-c1ncnc2cc(S(=O)(=O)Nc3ncns3)ccc12 readout_type=pIC50 endpoint_value=7.24
compound=Cc1ccccc1-c1nccc2cc(S(=O)(=O)Nc3nccs3)ccc12 readout_type=pIC50 endpoint_value=5.73
compound=COc1cc(Cl)ccc1-c1ncnc2cc(S(=O)(=O)Nc3ncns3)ccc12 readout_type=pIC50 endpoint_value=7.00
compound=COc1cc(C(F)(F)F)ccc1-c1nccc2cc(S(=O)(=O)N=C3NC(=O)CS3)ccc12 readout_type=pIC50 endpoint_value=6.04
compound=COc1ccccc1-c1nccc2cc(S(=O)(=O)Nc3ncns3)ccc12 readout_type=pIC50 endpoint_value=6.59
compound="O=S(=O)(Nc1ncns1)c1ccc2c(C3CCCN3c3ccccn3)cccc2c1 (centres unmarked)" readout_type=pIC50 endpoint_value=6.49
compound="N#CCOc1cc(Cl)ccc1-c1nccc2cc(S(=O)(=O)Nc3ncns3)ccc12 [Example 404, 2,2,2-TRIFLUOROACETATE]" readout_type=pIC50 endpoint_value=6.37
compound=N#CCOc1cc(C(F)(F)F)ccc1-c1nccc2cc(S(=O)(=O)Nc3nccs3)ccc12 readout_type=pIC50 endpoint_value=6.51
compound=COc1cc(C(F)(F)F)ccc1-c1nncc2cc(S(=O)(=O)Nc3ncc(F)s3)ccc12 readout_type=pIC50 endpoint_value=6.82
